System: DYRK2
test context: concentration: 1 μM, replicates: in singlicate; n = 1;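 note: KINOMEscan kinase panel screen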
property name: %Inh (%)

COc1ccc(Nc2nccc(-c3ccc(NC(=O)c4cc5cc(F)ccc5[nH]4)cc3)n2)cc1; 0
O=C(Nc1n[nH]c2nc(-c3cccs3)c(Br)cc12)C1CC1; 26
O=c1cc(N2CCOCC2)nc2n(Cc3cccc(Cl)c3Cl)c3ccccc3n12; 16
Fc1ccc(-c2nc3n(c2-c2ccncc2)CCS3)cc1; 24

----------
Test system: RSK4(Kin.Dom.2-C-terminal)
Construct: gene RPS6KA6
test context: concentration: 1 μM, replicates: in singlicate; n = 1
property name: %Inh (%)

O=C1NC(=O)C(c2ccc(Cl)cc2)=C1Nc1ccc(O)cc1 [SB-340867]; 0
CC(=O)c1cccc(NC(=O)NC2CCN(c3ccnc(Nc4ccc(F)cc4)n3)C2)c1 (centres unmarked) [GSK1379710]; 21
FC(F)(F)c1ccccc1-c1cc(-c2c[nH]nc2-c2ccccn2)ccn1 [GW679396]; 22
CS(=O)(=O)CCNCc1nc(-c2ccc3ncnc(Nc4ccc5c(cnn5Cc5ccccc5)c4)c3c2)cs1.Cl.Cl [GW569716]; 5
COc1ccc(Nc2nccc(N3CCC(NC(=O)C(C)c4ccc(Cl)cc4)C3)n2)cc1 (centres unmarked) [GSK1379735]; 7

Recorded values, source paper PMC5540273.
